The origin of these recorded values is the Immune Epitope Database (IEDB).

# Measured on: HLA-A*30:02
# Run description: IEDB peptide-MHC binding, purified MHC/competitive/radioactivity; filed as Kd, often an IC50 or EC50 that approximates it; bounds were set here for any values at or beyond the usual limits of such assays
# Assay context: source organism: SARS coronavirus Tor2
pKd: −log10 of the molar value.
Assay readout: pKd

• LYIIKLVFLW = ≤ 4.07
• PYNSVTDTI = ≤ 4.09
• FYAYLRKHF = ≤ 3.90

----------
# Measured on: HLA-A*02:02
# Run description: IEDB peptide-MHC binding, purified MHC/competitive/radioactivity; filed as Kd, often an IC50 or EC50 that approximates it; bounds were set here for any values at or beyond the usual limits of such assays
# Assay context: source organism: Vaccinia virus WR
Assay readout: Kd (nM)

- LMIGNYFSGV: 0.126
- HLRASTTENA: 488
- ALTDVEKRI: 74.2
- FTNSQIFNI: 6.89
- TVLTSVDIET: 1720
